Assay: Oral half-life and peak plasma levels
Assay type: in vivo
Conditions: rat, in vivo
metric_name: Peak Plasma Levels (µg/mL)
The reply should be a number in µg/mL, with the unit left off.

Recorded Peak Plasma Levels, per entry:
| structure_smiles_string | Peak Plasma Levels (µg/mL) |
| --- | --- |
| Cc1cc(C)c(NC(=O)c2sccc2S(=O)(=O)Nc2onc(C)c2Cl)c(C)c1C#N | 20 |
| Cc1cc(C)c(NC(=O)c2sccc2S(=O)(=O)Nc2onc(C)c2Cl)c(C)c1CC#N | 40.2 |

stdin: GET /values?readout=Peak Plasma Levels&item= Cc1cc(C)c(NC(=O)c2sccc2S(=O)(=O)Nc2onc(C)c2C)c(C)c1CC#N
stdout: 10.9

stdin: Peak Plasma Levels for Cc1cc(C)c(NC(=O)c2sccc2S(=O)(=O)Nc2noc(C)c2Cl)c(C)c1CC#N ?
stdout: 13

stdin: What value of Peak Plasma Levels has been reported for the following compound? Cc1cc(C)c(NC(=O)c2sccc2S(=O)(=O)Nc2onc(C)c2Cl)c(C)c1CO
stdout: 3

stdin: So what does the record say about Peak Plasma Levels for Cc1cc(C)c(S(N)(=O)=O)c(C)c1NC(=O)c1sccc1S(=O)(=O)Nc1onc(C)c1Cl ?
stdout: 2.8

###

Target: human ETB receptor (Homo sapiens)
Construct: expressed in transfected cells; host or cells: COS7 cells
Assay: Endothelin binding inhibition, Binding Test #2: competition with 125I-ET-1 for ETB receptors on transfected COS7 cell membranes
Settings: incubation at 24° C. (values marked †)
metric_name: pIC50
Convention used: pIC50 is expressed as -log10 of the molar concentration.

| molecule | endpoint_value |
| --- | --- |
| Cc1cc2c(cc1NC(=O)c1sccc1S(=O)(=O)Nc1onc(C)c1Cl)OCO2 | 3.45 |
| Cc1noc(NS(=O)(=O)c2ccsc2C(=O)Oc2ccc3c(c2)OCO3)c1Br | 5.22 |
| COc1ccc(NC(=O)c2sccc2S(=O)(=O)Nc2onc(C)c2Cl)c(C)c1 | 6.85 |

Now consider a different molecule.
stdin: Recorded pIC50 for CC(=O)OCc1c(C)cc(C)c(NC(=O)c2sccc2S(=O)(=O)Nc2onc(C)c2C)c1C with human ETB receptor (Homo sapiens), please?
stdout: 3.81

###

Target: human ETB receptor (Homo sapiens, UniProt P24530)
Construct: expressed in transfected cells; host or cells: COS7 cells
Sequence (P24530 27-442): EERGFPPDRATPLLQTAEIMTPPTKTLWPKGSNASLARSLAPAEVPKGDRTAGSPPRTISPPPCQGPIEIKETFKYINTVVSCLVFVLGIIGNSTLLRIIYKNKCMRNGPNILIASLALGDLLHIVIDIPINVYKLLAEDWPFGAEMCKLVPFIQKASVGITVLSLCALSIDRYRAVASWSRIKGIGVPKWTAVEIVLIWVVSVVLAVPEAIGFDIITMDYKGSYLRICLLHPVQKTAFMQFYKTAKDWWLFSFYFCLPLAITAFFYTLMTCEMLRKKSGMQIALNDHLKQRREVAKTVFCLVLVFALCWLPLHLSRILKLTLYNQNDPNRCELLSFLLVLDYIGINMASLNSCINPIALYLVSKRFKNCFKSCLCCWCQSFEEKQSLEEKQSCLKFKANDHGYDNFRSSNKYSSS
Assay: Endothelin binding inhibition, Binding Test #2: competition with 125I-ET-1 for ETB receptors on transfected COS7 cell membranes
Conditions: incubation at 24° C. (values marked †)
From the text: Compounds that are potential endothelin antagonists are identified by testing their ability to compete with ^125I-labeled ET-1 for binding to human ETA receptors or ETB receptors present on isolated cell membranes. The effectiveness of the test compound as an antagonist or agonist of the biological tissue response of endothelin can also be assessed by measuring the effect on endothelin induced contraction of isolated rat thoracic aortic rings. […]
Each record here notes measured IC50.
Numeric answer only, unit µM assumed.

Answered examples (3):
| structure_smiles_string | IC50 [µM] |
| --- | --- |
| Cc1ccc(-c2ccc(S(=O)(=O)Nc3noc(C)c3Br)s2)cc1 | 0.25 |
| Cc1noc(NS(=O)(=O)c2sccc2-c2ccc(C(C)C)cc2)c1Br | 28.3 |
| Cc1cc(C)c(NC(=O)c2sccc2S(=O)(=O)Nc2noc(C)c2Cl)c(C)c1CO | 3.08 |

stdin: Would you kindly share the measured IC50 for Cc1noc(NS(=O)(=O)c2c(Cc3ccc4c(c3)OCO4)sc3ccccc23)c1Cl ?
stdout: 0.936

stdin: State the recorded IC50 for this entry: Cc1cc(C)c(NC(=O)c2sccc2S(=O)(=O)Nc2onc(C)c2Cl)c(C)c1CC(=O)O
stdout: 106

stdin: Which IC50 reading was recorded for the compound COC(=O)c1c(C)cc(C)c(NC(=O)c2sccc2S(=O)(=O)Nc2onc(C)c2Cl)c1C ?
stdout: 16.5

stdin: Given the compound Cc1cc(C)c(OCc2ccsc2S(=O)(=O)Nc2onc(C)c2Br)c(C)c1 , what is its reported IC50?
stdout: 4.68

stdin: Please look up its IC50: Cc1noc(NS(=O)(=O)c2ccsc2C(=O)Nc2ccc3c(c2)OCO3)c1Br
stdout: 9.8
